B1: scFv; the commonest letter at each place (parent)
chain 1: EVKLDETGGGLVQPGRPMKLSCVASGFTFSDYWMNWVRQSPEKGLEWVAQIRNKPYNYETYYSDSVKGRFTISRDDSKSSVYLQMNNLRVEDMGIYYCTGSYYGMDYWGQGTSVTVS
chain 2: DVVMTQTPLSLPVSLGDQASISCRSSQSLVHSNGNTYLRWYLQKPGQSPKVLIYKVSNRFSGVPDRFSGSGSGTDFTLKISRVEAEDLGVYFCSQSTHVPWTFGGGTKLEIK

# Variants of: B1
# EXPERIMENT: yeast surface expression (ratio to wild type); higher = more expressed
# EXPERIMENTAL PARAMETERS: format: scFv 4-4-20, heavy + light
Tick y if yeast surface expression is 0.7 or greater. Tick n if yeast surface expression is less than 0.7.

>  <MUTANT CODE>
chain 1 F29E D31G N35R

>  <DISCRETE LABEL>
n

$$$$
>  <MUTANT CODE>
chain 1 Y102K G104L D106G

>  <DISCRETE LABEL>
n

$$$$
>  <MUTANT CODE>
chain 1 G100F M105D

>  <DISCRETE LABEL>
n

$$$$
>  <MUTANT CODE>
chain 1 M34V V37K

>  <DISCRETE LABEL>
y

$$$$
>  <MUTANT CODE>
chain 1 Y102V G104N

>  <DISCRETE LABEL>
y

$$$$
>  <MUTANT CODE>
chain 1 W108D G109I

>  <DISCRETE LABEL>
n

$$$$
>  <MUTANT CODE>
chain 1 Y107A W108A

>  <DISCRETE LABEL>
n

$$$$
>  <MUTANT CODE>
chain 1 Y32S W33S

>  <DISCRETE LABEL>
y

$$$$
>  <MUTANT CODE>
chain 1 W33C M34Q

>  <DISCRETE LABEL>
y

$$$$
>  <MUTANT CODE>
chain 1 G104L M105G Y107F

>  <DISCRETE LABEL>
n

$$$$
